Please go through the items and note down their IC50.
target: Glutamate NMDA receptor; assay: Binding affinity for N-methyl-D-aspartate glutamate receptor of cerebral cortical synaptic membranes from rats using [3H]MK-801 as radioligand
Numbers only, in µM.

Observe how each entry below is paired with its result.
molecule: CCCN(CC1CC1)C(=O)/C(=C\C1CCCN1)c1ccccc1 (stereo unspecified)
assay system: Glutamate NMDA receptor
IC50 (µM): 0.74
--
molecule: C=C(C)CN(CC)C(=O)/C(=C\C1CCCN1)c1ccccc1 (stereo unspecified)
assay system: Glutamate NMDA receptor
IC50 (µM): 0.52
--
molecule: CCCN(CCC)C(=O)/C(=C\C1CCCN1)c1cccc(F)c1 (stereo unspecified)
assay system: Glutamate NMDA receptor
IC50 (µM): 0.42
--
molecule: CCCN(CCC)C(=O)/C(=C\C1CCCN1)c1ccccc1F (stereo unspecified)
assay system: Glutamate NMDA receptor
IC50 (µM): 1.7
--
molecule: CCCN(CCC)C(=O)/C(=C\C(N)CC)c1ccccc1 (stereo unspecified)
assay system: Glutamate NMDA receptor
IC50 (µM): 0.53
--
molecule: CCN(CC)C(=O)/C(=C\C1CCCN1)c1ccccc1 (stereo unspecified)
assay system: Glutamate NMDA receptor
IC50 (µM): 3.6

Batch: IC50 for all items listed.
1. CCN(CC)C(=O)[C@@]1(c2ccccc2)C[C@H]1C1CCCN1 (stereo partly specified)
2. CCCN(CCC)C(=O)/C(=C\C1CCCN1)c1ccc(F)cc1 (stereo unspecified)
3. CC[C@H](N)[C@@H]1C[C@@]1(C(=O)N(CC)CC)c1ccccc1

1: 1; 2: 13; 3: 0.2

These measurements were taken from ChEMBL document CHEMBL1145916.
